- Tested on: male rats
- testDetails: Plasma metabolite profiling (GC-MS, LC-MS, SPE-LC-MS) in male rats dosed once daily over 28 days (OECD 407)
- Type: in vivo, rat
- measurementContext: m28; high dose; Table 14b
- Experimental: Each dose group in the studies consisted of five rats per sex. Additional groups of each 5 male and female animals served as controls. […] All animals of the animal population were kept under the same constant temperature (20-24±3° C.) and the same constant humidity (30-70%). The animals of the animal population were fed ad libitum. […] Steroids and their metabolites were measured by online SPE-LC-MS (Solid phase extraction-LC-MS). […]
Where a name gives a salt, the structure may show the parent alone.
// values below are reported Choline plasmalogen No 02
The response must contain the number and no unit.

Here are 3 molecules together with their reported answers.
CC/C(=C(\c1ccccc1)c1ccc(OCCN(C)C)cc1)c1ccccc1 :: 0.68
C#C[C@]1(O)CC[C@H]2[C@@H]3CCc4cc(O)ccc4[C@H]3CC[C@@]21C :: 0.55
OCCNCCO :: 0.74

Entry C[C@]12C=CC3=C4CCC(=O)C=C4CCC3C1CC[C@@H]2O (stereo partly drawn) ; assay system male rats; Choline plasmalogen No 02 recorded at 0.55

Entry O=C(c1ccc(OCCN2CCCCC2)cc1)c1c(-c2ccc(O)cc2)sc2cc(O)ccc12 [Raloxifene Hydrochloride] ; assay system male rats; Choline plasmalogen No 02 recorded at 0.65

Entry `C[C@]12CCC(=O)C=C1CC[C@@H]1[C@@H]2CC[C@@]2(C)[C@H]1CC[C@]2(C)O` ; assay system male rats; Choline plasmalogen No 02 recorded at 0.49

###

- System: male rats
- testDetails: Plasma metabolite profiling (GC-MS, LC-MS, SPE-LC-MS) in male rats dosed once daily over 28 days (OECD 407)
- Type: in vivo, rat
- measurementContext: m14; high dose; Table 14b
Counter-ions that a name gives are not always drawn.
// values below are reported Sphingomyelin (d18:1, C16:0)
The response must contain the number and no unit.

Here are 3 compounds together with their reported answers.
O=C(c1ccc(OCCN2CCCCC2)cc1)c1c(-c2ccc(O)cc2)sc2cc(O)ccc12 [Raloxifene Hydrochloride] :: 0.62
C[C@]12CCC(=O)C=C1CC[C@@H]1[C@@H]2CC[C@@]2(C)[C@H]1CC[C@]2(C)O :: 0.28
OCCNCCO :: 0.71

// Sphingomyelin (d18:1, C16:0) value for C[C@]12C=CC3=C4CCC(=O)C=C4CCC3C1CC[C@@H]2O (stereo partly drawn) : 0.22

// Sphingomyelin (d18:1, C16:0) value for `CC/C(=C(\c1ccccc1)c1ccc(OCCN(C)C)cc1)c1ccccc1` : 0.63

// Sphingomyelin (d18:1, C16:0) value for `C#C[C@]1(O)CC[C@H]2[C@@H]3CCc4cc(O)ccc4[C@H]3CC[C@@]21C` : 0.37

###

- Test system: male rats
- testDetails: Plasma metabolite profiling (GC-MS, LC-MS, SPE-LC-MS) in male rats dosed once daily over 28 days (OECD 407)
- Format: in vivo, rat
- measurementContext: m28; high dose; Table 10a
Counter-ions that a name gives are not always drawn. Marks after values point to notes of the source that are not given here.
parameter: Lignoceric acid (C24:0)

CC(C)C(=O)Nc1ccc([N+](=O)[O-])c(C(F)(F)F)c1 [Flutamide] :: 1.3 *
Cc1cccc(C)c1N(Cn1cccn1)C(=O)CCl :: 2.11 *
Cn1cc[nH]c1=S :: 2.16 *

# ---- query compound ----
// Lignoceric acid (C24:0) value for CNCCC(Oc1ccc(C(F)(F)F)cc1)c1ccccc1 (stereo not shown) [Fluoxetine hydrochloride] : 1.79 *
